Recorded measurements of PBM E-score, one per entry
# assay.target: Ecm22 (UniProt Q05958)
# Sequence: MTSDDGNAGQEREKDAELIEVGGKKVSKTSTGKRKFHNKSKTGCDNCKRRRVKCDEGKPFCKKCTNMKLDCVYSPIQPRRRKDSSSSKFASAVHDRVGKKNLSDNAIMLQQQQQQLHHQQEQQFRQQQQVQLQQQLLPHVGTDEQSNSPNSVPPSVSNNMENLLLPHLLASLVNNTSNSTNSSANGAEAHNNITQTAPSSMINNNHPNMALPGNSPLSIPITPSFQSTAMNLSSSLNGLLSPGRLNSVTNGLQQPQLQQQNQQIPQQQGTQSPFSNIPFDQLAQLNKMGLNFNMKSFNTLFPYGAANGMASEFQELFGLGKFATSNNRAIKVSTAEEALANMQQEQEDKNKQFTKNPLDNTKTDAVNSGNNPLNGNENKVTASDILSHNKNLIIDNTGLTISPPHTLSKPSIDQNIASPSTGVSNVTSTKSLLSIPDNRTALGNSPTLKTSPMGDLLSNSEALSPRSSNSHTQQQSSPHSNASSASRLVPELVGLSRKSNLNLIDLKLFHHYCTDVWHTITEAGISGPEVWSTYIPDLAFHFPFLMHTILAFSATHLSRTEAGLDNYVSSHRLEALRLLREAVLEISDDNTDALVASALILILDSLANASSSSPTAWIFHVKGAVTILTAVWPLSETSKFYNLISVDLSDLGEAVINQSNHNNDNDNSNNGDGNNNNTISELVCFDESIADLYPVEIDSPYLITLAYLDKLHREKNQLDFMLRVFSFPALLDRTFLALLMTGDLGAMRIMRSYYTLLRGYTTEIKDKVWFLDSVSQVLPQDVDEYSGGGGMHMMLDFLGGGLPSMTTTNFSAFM
# test.name: PBM E-score (8-mer binding enrichment) (E-score (-0.5 to 0.5)); higher = stronger / more preferred TF binding
# assay.conditions: protein concentration: 200 nM; construct: GST-full length
The full ranking holds about 33,000 sequences; the median of “E-score (-0.5 to 0.5)” is about -0.041, and the highest 2% start at about 0.37. For the sample, the highest values were picked, then their nearest neighbours and some sequences at random.
assay.readout: PBM E-score

[[record]]
sequence_input = "CGTACGCC"
endpoint_value = 0.3

[[record]]
sequence_input = "CACCAGCA"
endpoint_value = -0.028

[[record]]
sequence_input = "ATTACGAC"
endpoint_value = 0.367

[[record]]
sequence_input = "AGTACCCC"
endpoint_value = -0.0697

[[record]]
sequence_input = "CGAACGAA"
endpoint_value = 0.393

[[record]]
sequence_input = "GCGAACGA"
endpoint_value = 0.397

[[record]]
sequence_input = "AAGCATTC"
endpoint_value = -0.157

[[record]]
sequence_input = "CGGGTCGC"
endpoint_value = 0.187

[[record]]
sequence_input = "TCGAACCA"
endpoint_value = -0.029

[[record]]
sequence_input = "CTCTACGC"
endpoint_value = 0.00503

[[record]]
sequence_input = "ATCGCTTA"
endpoint_value = 0.327

[[record]]
sequence_input = "TTAACGAA"
endpoint_value = 0.411

[[record]]
sequence_input = "ATGCAGAC"
endpoint_value = -0.0112

[[record]]
sequence_input = "AGAACAAA"
endpoint_value = 0.0892

[[record]]
sequence_input = "GCGGTAAA"
endpoint_value = 0.173

[[record]]
sequence_input = "CTCCGTAC"
endpoint_value = 0.386

[[record]]
sequence_input = "ATATGGAT"
endpoint_value = 0.133

[[record]]
sequence_input = "AGTTTAAA"
endpoint_value = 0.0639

[[record]]
sequence_input = "CGGACGAG"
endpoint_value = -0.0963

[[record]]
sequence_input = "ATTACGTG"
endpoint_value = -0.0556

[[record]]
sequence_input = "CGTAGCTC"
endpoint_value = 0.32

[[record]]
sequence_input = "ACGAACGT"
endpoint_value = 0.307

[[record]]
sequence_input = "CATAGGAC"
endpoint_value = -0.091

[[record]]
sequence_input = "ATTACGAG"
endpoint_value = 0.38

[[record]]
sequence_input = "CCTTTAAG"
endpoint_value = -0.259

[[record]]
sequence_input = "GTGTACGA"
endpoint_value = 0.481

[[record]]
sequence_input = "AGGATGAG"
endpoint_value = -0.0765

[[record]]
sequence_input = "AGAACGAT"
endpoint_value = 0.342

[[record]]
sequence_input = "CATCCCCC"
endpoint_value = -0.207

[[record]]
sequence_input = "CTCGCTCA"
endpoint_value = 0.358

[[record]]
sequence_input = "ATGATACA"
endpoint_value = -0.0736

[[record]]
sequence_input = "CTGGCTCC"
endpoint_value = -0.202

[[record]]
sequence_input = "ACCGTCTG"
endpoint_value = -0.112

[[record]]
sequence_input = "GGCTACAA"
endpoint_value = 0.042

[[record]]
sequence_input = "GTTGACCA"
endpoint_value = -0.16

[[record]]
sequence_input = "AGTACGTG"
endpoint_value = 0.142

[[record]]
sequence_input = "CGATCTAC"
endpoint_value = 0.184

[[record]]
sequence_input = "CTGTACAA"
endpoint_value = -0.0518

[[record]]
sequence_input = "GGAACGTA"
endpoint_value = 0.353

[[record]]
sequence_input = "GGTTTAAC"
endpoint_value = 0.0725

[[record]]
sequence_input = "GTGTACTA"
endpoint_value = 0.207

[[record]]
sequence_input = "CGTACGTC"
endpoint_value = 0.356

[[record]]
sequence_input = "GAGGCGTA"
endpoint_value = 0.155

[[record]]
sequence_input = "GCGAACGC"
endpoint_value = 0.138

[[record]]
sequence_input = "ACGACCCT"
endpoint_value = 0.331

[[record]]
sequence_input = "CCCCCTGC"
endpoint_value = -0.162

[[record]]
sequence_input = "AGCTACGG"
endpoint_value = 0.112

[[record]]
sequence_input = "AGAACGTC"
endpoint_value = -0.0743

[[record]]
sequence_input = "ATGATACC"
endpoint_value = 0.146

[[record]]
sequence_input = "CCGAACGG"
endpoint_value = 0.222

[[record]]
sequence_input = "CGTTTAAA"
endpoint_value = 0.453

[[record]]
sequence_input = "ATGTACGG"
endpoint_value = 0.365

[[record]]
sequence_input = "CAGAATCG"
endpoint_value = 0.17

[[record]]
sequence_input = "TAGGGAGA"
endpoint_value = -0.252

[[record]]
sequence_input = "GTCGCTTA"
endpoint_value = 0.37

[[record]]
sequence_input = "CGTACGAC"
endpoint_value = 0.444

[[record]]
sequence_input = "ACGATACG"
endpoint_value = 0.383

[[record]]
sequence_input = "CTCCGTAA"
endpoint_value = 0.187

[[record]]
sequence_input = "GGAACGAC"
endpoint_value = 0.491

[[record]]
sequence_input = "CATACCCC"
endpoint_value = -0.0887

[[record]]
sequence_input = "CGCTACGC"
endpoint_value = 0.138

[[record]]
sequence_input = "GGCTACGA"
endpoint_value = 0.424

[[record]]
sequence_input = "AATATCTA"
endpoint_value = -0.0604

[[record]]
sequence_input = "GGAACGAA"
endpoint_value = 0.489

[[record]]
sequence_input = "ATAACGAC"
endpoint_value = 0.203

[[record]]
sequence_input = "CGTACCCA"
endpoint_value = 0.406

[[record]]
sequence_input = "AGTACGCG"
endpoint_value = 0.197

[[record]]
sequence_input = "CCTACGAG"
endpoint_value = 0.339

[[record]]
sequence_input = "ATCCGTAC"
endpoint_value = 0.363

[[record]]
sequence_input = "GAGCGGGC"
endpoint_value = -0.0404

[[record]]
sequence_input = "GCAGGCCA"
endpoint_value = -0.00078

[[record]]
sequence_input = "CAATGGGC"
endpoint_value = -0.209

[[record]]
sequence_input = "GCGAACTA"
endpoint_value = 0.114

[[record]]
sequence_input = "GTGTACCA"
endpoint_value = 0.0289

[[record]]
sequence_input = "AGCTACGA"
endpoint_value = 0.394

[[record]]
sequence_input = "CCGAACGA"
endpoint_value = 0.357

[[record]]
sequence_input = "ACGAACGG"
endpoint_value = 0.392

[[record]]
sequence_input = "GGAACGCC"
endpoint_value = 0.051

[[record]]
sequence_input = "ACGAACGA"
endpoint_value = 0.447

[[record]]
sequence_input = "CTGTACGA"
endpoint_value = 0.48

[[record]]
sequence_input = "CTCTACGA"
endpoint_value = 0.37

[[record]]
sequence_input = "AAGCGCAC"
endpoint_value = 0.0929

[[record]]
sequence_input = "CCCTCTCC"
endpoint_value = -0.358

[[record]]
sequence_input = "GTCGCTAA"
endpoint_value = 0.289

[[record]]
sequence_input = "ATCGACGA"
endpoint_value = -0.00044

[[record]]
sequence_input = "AGACGAGA"
endpoint_value = 0.166

[[record]]
sequence_input = "AGTACGAG"
endpoint_value = 0.456

[[record]]
sequence_input = "AAACGAGA"
endpoint_value = 0.463

[[record]]
sequence_input = "CGTTTAAG"
endpoint_value = 0.429

[[record]]
sequence_input = "GTAACGAC"
endpoint_value = 0.289

[[record]]
sequence_input = "AACCCGAG"
endpoint_value = 0.267

